hPDE4D (Homo sapiens): recorded IC50 for assorted molecules
Sequence (Q08499 whole entry): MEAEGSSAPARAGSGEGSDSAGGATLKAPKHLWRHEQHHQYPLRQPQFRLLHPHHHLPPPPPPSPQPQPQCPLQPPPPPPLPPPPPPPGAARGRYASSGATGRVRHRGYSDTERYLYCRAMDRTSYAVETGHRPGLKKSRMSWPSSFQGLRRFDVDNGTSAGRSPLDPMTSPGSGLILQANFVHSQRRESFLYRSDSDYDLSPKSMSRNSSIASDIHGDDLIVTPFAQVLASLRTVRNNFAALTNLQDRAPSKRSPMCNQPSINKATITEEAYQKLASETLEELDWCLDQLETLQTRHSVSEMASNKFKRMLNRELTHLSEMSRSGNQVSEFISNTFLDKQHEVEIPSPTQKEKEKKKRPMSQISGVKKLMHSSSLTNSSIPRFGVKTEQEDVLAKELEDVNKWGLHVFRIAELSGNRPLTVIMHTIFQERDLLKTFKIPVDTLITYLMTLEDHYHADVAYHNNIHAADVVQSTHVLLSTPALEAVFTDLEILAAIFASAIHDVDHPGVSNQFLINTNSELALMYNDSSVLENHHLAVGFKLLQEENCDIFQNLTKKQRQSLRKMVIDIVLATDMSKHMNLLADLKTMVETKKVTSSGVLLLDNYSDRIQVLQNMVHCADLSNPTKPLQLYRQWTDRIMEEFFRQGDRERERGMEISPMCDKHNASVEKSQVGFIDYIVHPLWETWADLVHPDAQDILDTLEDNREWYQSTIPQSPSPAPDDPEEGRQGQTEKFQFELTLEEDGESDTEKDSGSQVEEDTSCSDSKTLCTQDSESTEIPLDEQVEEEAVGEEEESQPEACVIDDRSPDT
Param answer (str): number followed by unit.

>  <Molecule>
CC1CCC(C)(C)CN1c1nnc2c(N)nccn12 (single isomer, unassigned) [Example 236]

>  <Result Value>
0.036 µM

$$$$
>  <Molecule>
Nc1nccn2c(C3CCCC(C(F)(F)F)C3)nnc12 (single isomer, unassigned) [Example 210]

>  <Result Value>
5.45 µM

$$$$
>  <Molecule>
Nc1ncnc2c1nnn2C1CCCCC1F (single isomer, unassigned) [Example 195]

>  <Result Value>
5.7 µM

$$$$

Moving on to another molecule below.
Q. Form field: reported IC50 of CC1(C)CCCN(c2nnc3c(N)ncc(Cl)n23)C1 [Example 248]
A. 1.88 µM

---

Human PDE7B (hPDE7B) (Homo sapiens, UniProt Q9NP56): recorded IC50 for assorted compounds
Sequence (Q9NP56 whole entry): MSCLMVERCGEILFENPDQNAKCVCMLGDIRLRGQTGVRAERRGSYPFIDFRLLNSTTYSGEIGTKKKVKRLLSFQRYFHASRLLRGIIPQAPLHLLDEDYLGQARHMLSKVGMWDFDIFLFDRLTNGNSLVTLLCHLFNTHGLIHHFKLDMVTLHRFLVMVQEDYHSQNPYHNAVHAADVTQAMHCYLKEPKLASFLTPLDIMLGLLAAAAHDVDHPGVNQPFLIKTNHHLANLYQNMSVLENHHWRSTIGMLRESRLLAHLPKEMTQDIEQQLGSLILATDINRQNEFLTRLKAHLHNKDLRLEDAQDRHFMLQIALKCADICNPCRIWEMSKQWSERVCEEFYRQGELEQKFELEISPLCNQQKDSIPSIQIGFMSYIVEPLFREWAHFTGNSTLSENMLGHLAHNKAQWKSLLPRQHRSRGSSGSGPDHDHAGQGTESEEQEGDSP

>  <Compound>
Nc1ncnc2c1nnn2[C@@H]1CCCOC1 [Example 90]

>  <Subject Of Test>
Human PDE7B (hPDE7B) (Homo sapiens, UniProt Q9NP56)

>  <IC50>
120 nM

$$$$
>  <Compound>
Nc1ncnc2c1nnn2C1CCc2ccccc2C1 (stereo not shown) [Example 34]

>  <Subject Of Test>
Human PDE7B (hPDE7B) (Homo sapiens, UniProt Q9NP56)

>  <IC50>
460 nM

$$$$
>  <Compound>
CC1CC(c2nnc3c(N)nccn23)CC(F)(F)C1 (single isomer, unassigned) [Example 214]

>  <Subject Of Test>
Human PDE7B (hPDE7B) (Homo sapiens, UniProt Q9NP56)

>  <IC50>
60 nM

$$$$

Moving on to another compound below.
Q. Form field: reported IC50 of Cc1nn(C2CCCCC2)c2ncnc(N)c12 [Example 184]
A. 540 nM

---

# key: entry, value: inhibition at 10 µM
molecular target: hPDE8B (Homo sapiens); construct: purchased SB Drug Discovery; test: PDE8 inhibition assay (IC50), Experimental Example 3; format: biochemical; conditions: at 10 μmol/L; read-out: inhibition rate (%) at prescribed concentration, PDE8
Sequence (O95263 whole entry): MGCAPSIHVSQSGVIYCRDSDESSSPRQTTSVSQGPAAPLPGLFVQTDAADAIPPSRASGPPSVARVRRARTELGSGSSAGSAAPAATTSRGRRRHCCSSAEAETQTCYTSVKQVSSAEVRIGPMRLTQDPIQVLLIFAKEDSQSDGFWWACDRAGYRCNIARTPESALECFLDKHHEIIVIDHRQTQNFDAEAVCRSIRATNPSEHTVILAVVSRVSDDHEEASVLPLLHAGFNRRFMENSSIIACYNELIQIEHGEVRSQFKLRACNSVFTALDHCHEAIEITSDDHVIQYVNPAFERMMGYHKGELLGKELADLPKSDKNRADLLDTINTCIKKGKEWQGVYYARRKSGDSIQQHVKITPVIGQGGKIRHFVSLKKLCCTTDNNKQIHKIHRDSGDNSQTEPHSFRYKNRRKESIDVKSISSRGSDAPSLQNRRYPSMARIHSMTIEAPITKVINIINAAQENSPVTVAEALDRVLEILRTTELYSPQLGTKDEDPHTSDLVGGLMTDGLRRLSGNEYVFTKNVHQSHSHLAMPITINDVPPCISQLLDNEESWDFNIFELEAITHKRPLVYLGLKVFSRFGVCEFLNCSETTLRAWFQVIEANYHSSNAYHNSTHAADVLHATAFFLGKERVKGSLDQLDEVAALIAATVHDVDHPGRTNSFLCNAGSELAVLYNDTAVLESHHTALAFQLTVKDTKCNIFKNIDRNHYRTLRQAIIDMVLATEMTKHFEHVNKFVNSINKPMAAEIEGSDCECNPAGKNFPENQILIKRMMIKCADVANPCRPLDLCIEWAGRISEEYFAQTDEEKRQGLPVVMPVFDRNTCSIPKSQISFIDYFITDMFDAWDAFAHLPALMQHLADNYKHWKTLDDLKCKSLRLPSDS
Only the number, expressed in %, is required.

>  <Molecule>
Nc1nccn2c(C3(F)CCCCC3)nnc12 [Example 142]

>  <Result Unit>
%

>  <Result Value>
49

$$$$
>  <Molecule>
Nc1ncnc2c1cnn2C1CCCCC1 [Example 181]

>  <Result Unit>
%

>  <Result Value>
24

$$$$
>  <Molecule>
CC1(n2nnc3c(N)ncnc32)CCCCC1 [Example 7]

>  <Result Unit>
%

>  <Result Value>
50

$$$$
>  <Molecule>
Cc1nn(C2CCCCC2)c2ncnc(N)c12 [Example 184]

>  <Result Unit>
%

>  <Result Value>
18

$$$$
>  <Molecule>
Nc1nccn2c(C3CCCCC3)ncc12 [Example 180]

>  <Result Unit>
%

>  <Result Value>
36

$$$$
>  <Molecule>
Nc1cncn2c(C3CCCCC3)nnc12 [Example 189]

>  <Result Unit>
%

>  <Result Value>
24

$$$$

Q. Form field: reported inhibition at 10 µM of Nc1cccn2c(C3CCCCC3)nnc12 [Example 186]
A. -1

---

target: hPDE10A (Homo sapiens)
Sequence (Q9Y233 290-1055 limits assumed): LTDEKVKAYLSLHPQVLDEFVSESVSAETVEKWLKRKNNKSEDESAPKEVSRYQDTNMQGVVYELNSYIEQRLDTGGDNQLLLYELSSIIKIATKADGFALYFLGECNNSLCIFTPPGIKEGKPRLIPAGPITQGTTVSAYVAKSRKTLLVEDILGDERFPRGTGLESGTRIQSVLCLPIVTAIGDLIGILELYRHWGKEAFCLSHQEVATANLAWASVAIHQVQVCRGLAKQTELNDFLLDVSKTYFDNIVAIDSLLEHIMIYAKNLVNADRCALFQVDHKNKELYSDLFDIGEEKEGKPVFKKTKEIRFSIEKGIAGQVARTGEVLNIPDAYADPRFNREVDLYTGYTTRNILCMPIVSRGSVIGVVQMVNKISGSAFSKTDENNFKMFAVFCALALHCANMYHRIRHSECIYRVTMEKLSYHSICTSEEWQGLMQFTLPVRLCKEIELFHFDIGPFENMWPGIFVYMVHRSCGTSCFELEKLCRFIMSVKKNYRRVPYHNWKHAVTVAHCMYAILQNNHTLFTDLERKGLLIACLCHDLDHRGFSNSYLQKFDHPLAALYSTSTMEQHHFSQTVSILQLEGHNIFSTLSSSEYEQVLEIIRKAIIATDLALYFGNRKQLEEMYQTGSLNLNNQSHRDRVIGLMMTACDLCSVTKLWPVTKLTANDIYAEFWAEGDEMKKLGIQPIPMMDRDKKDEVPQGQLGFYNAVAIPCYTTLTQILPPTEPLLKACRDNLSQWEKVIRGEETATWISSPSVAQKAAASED
Hi! Just check whether IC50 is below 7 µM. Below gives condition met, equal or above gives condition not met.

Q. Is IC50 strictly under 7 µM for the entry CC1CCN(c2nnc3c(N)nccn23)CC1 ?
A. condition not met

Q. Again, but for CC1CCC(C(F)(F)F)CC1c1nnc2c(N)ncnn12 (racemic)
A. condition met

Q. Again, but for CC1CC(c2nnc3c(N)nccn23)CC(F)(F)C1 (single isomer, unassigned)
A. condition not met

Q. Again, but for CC1CCCCC1n1nnc2c(N)ncnc21 (single isomer, unassigned)
A. condition met
